All figures here come from ChEMBL document CHEMBL3244286.

Assay Procedure: Competitive inhibition of 6.4 X 10^-7 M bovine trypsin using Z-Lys-nitrophenyl ester as substrate incubated up to 1 hr at pH 6
Set-up: species or system Bos taurus
pKi: −log10 of the molar value.
Readout: pKi

smiles_data=N=C(N)SCc1ccc(CS(=O)(=O)Oc2ccc([N+](=O)[O-])cc2)cc1 readout_value=3.41

----------
Target Or Test System: Prothrombin (Bos taurus, UniProt P00735)
Readout: Ki

smiles_data=N=C(N)SCc1ccc(CS(=O)(=O)Oc2ccc([N+](=O)[O-])cc2)cc1 target_or_test_system="Prothrombin (Bos taurus, UniProt P00735)" readout_value="930 µM"

----------
Target Or Test System: Plasma kallikrein (Homo sapiens, UniProt P03952)
Sequence (P03952 20-390 limits assumed): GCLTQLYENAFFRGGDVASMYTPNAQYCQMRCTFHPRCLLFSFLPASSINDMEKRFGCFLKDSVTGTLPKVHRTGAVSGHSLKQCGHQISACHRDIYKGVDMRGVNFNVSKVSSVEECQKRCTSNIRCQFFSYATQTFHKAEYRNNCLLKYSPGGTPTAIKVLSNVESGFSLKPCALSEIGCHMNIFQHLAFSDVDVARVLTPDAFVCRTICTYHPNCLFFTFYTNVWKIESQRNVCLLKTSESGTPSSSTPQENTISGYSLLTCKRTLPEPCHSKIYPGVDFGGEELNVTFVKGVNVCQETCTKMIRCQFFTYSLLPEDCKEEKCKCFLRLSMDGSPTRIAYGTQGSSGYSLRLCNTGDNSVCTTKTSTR
Sequence (P03952 391-638 limits assumed): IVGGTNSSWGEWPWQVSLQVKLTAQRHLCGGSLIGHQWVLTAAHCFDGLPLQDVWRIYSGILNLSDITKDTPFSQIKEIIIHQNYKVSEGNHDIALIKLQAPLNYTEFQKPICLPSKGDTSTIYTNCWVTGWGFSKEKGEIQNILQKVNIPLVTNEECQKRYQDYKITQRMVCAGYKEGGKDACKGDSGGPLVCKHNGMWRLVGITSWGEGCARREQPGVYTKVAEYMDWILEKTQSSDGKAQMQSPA
Assay Procedure: Inhibition of 2 X 10^-7 M human plasma kallikrein using Z-Lys-nitrophenyl ester as substrate assessed as second-order rate inactivation constant incubated up to 1 hr at pH 7.4
Kinact reference
Readout: Kinact

smiles_data=N=C(N)SCc1ccc(S(=O)(=O)Oc2ccc([N+](=O)[O-])cc2)cc1 readout_value="0.183 M⁻¹ s⁻¹"
smiles_data=C[S+](C)c1ccc(CS(=O)(=O)Oc2ccc([N+](=O)[O-])cc2)cc1 readout_value="0 M⁻¹ s⁻¹"
smiles_data=CNC(=N)SCc1ccc(S(=O)(=O)Oc2ccc([N+](=O)[O-])cc2)cc1 readout_value="0 M⁻¹ s⁻¹"
smiles_data=C[S+](C)c1cccc(CS(=O)(=O)Oc2ccc([N+](=O)[O-])cc2)c1 readout_value="0 M⁻¹ s⁻¹"
smiles_data=C[S+](C)Cc1ccc(S(=O)(=O)Oc2ccc([N+](=O)[O-])cc2)cc1 readout_value="0 M⁻¹ s⁻¹"
smiles_data=C[N+](C)(C)Cc1ccc(S(=O)(=O)Oc2ccc([N+](=O)[O-])cc2)cc1 readout_value="0 M⁻¹ s⁻¹"
smiles_data=O=[N+]([O-])c1ccc(OS(=O)(=O)Cc2ccc(-[n+]3ccccc3)cc2)cc1 readout_value="0 M⁻¹ s⁻¹"
smiles_data=N=C(N)SCc1ccc(CS(=O)(=O)Oc2cccc([N+](=O)[O-])c2)cc1 readout_value="0 M⁻¹ s⁻¹"
smiles_data=O=[N+]([O-])c1ccc(OS(=O)(=O)Cc2cccc(-[n+]3ccccc3)c2)cc1 readout_value="0 M⁻¹ s⁻¹"

----------
Target Or Test System: Prothrombin (Bos taurus) (UniProt P00735)
Assay Procedure: Inhibition of 16 X 10^-7 M bovine thrombin using Z-Lys-nitrophenyl ester as substrate assessed as second-order rate inactivation constant incubated up to 1 hr at pH 7.4
Kinact reference
Readout: Kinact (M⁻¹ s⁻¹)

smiles_data=CNC(=N)SCc1ccc(S(=O)(=O)Oc2ccc([N+](=O)[O-])cc2)cc1 readout=Kinact readout_value=0
smiles_data=O=[N+]([O-])c1ccc(OS(=O)(=O)Cc2cccc(-[n+]3ccccc3)c2)cc1 readout=Kinact readout_value=0
smiles_data=C[N+](C)(C)Cc1ccc(S(=O)(=O)Oc2ccc([N+](=O)[O-])cc2)cc1 readout=Kinact readout_value=2.45
smiles_data=N=C(N)SCc1ccc(CS(=O)(=O)Oc2cccc([N+](=O)[O-])c2)cc1 readout=Kinact readout_value=0
smiles_data=N=C(N)SCc1ccc(CS(=O)(=O)Oc2ccc([N+](=O)[O-])cc2)cc1 readout=Kinact readout_value=0
smiles_data=C[S+](C)c1cccc(CS(=O)(=O)Oc2ccc([N+](=O)[O-])cc2)c1 readout=Kinact readout_value=0
smiles_data=O=[N+]([O-])c1ccc(OS(=O)(=O)Cc2ccc(-[n+]3ccccc3)cc2)cc1 readout=Kinact readout_value=0
smiles_data=N=C(N)SCc1ccc(S(=O)(=O)Oc2ccc([N+](=O)[O-])cc2)cc1 readout=Kinact readout_value=9.67
smiles_data=O=[N+]([O-])c1ccc(OS(=O)(=O)c2ccc(C[n+]3ccccc3)cc2)cc1 readout=Kinact readout_value=0
smiles_data=C[S+](C)Cc1ccc(S(=O)(=O)Oc2ccc([N+](=O)[O-])cc2)cc1 readout=Kinact readout_value=0
smiles_data=C[S+](C)c1ccc(CS(=O)(=O)Oc2ccc([N+](=O)[O-])cc2)cc1 readout=Kinact readout_value=0

----------
Species on record: Bos taurus
Assay Procedure: Inhibition of 6.4 X 10^-7 M bovine trypsin using Z-Lys-nitrophenyl ester as substrate assessed as second-order rate inactivation constant incubated up to 1 hr at pH 7.4
Readout: Kinact (M⁻¹ min⁻¹)

smiles_data=N=C(N)SCc1ccc(CS(=O)(=O)Oc2cccc([N+](=O)[O-])c2)cc1 result_unit="M⁻¹ min⁻¹" readout_value=430
smiles_data=N=C(N)SCc1ccc(CS(=O)(=O)Oc2ccc([N+](=O)[O-])cc2)cc1 result_unit="M⁻¹ min⁻¹" readout_value=1500
smiles_data=C[S+](C)c1ccc(CS(=O)(=O)Oc2ccc([N+](=O)[O-])cc2)cc1 result_unit="M⁻¹ min⁻¹" readout_value=0
smiles_data=CNC(=N)SCc1ccc(S(=O)(=O)Oc2ccc([N+](=O)[O-])cc2)cc1 result_unit="M⁻¹ min⁻¹" readout_value=0
smiles_data=O=[N+]([O-])c1ccc(OS(=O)(=O)Cc2cccc(-[n+]3ccccc3)c2)cc1 result_unit="M⁻¹ min⁻¹" readout_value=0
